- Tested Target: HIV-1 envelope glycoprotein gp120 of virus VS001 (HIV-1)
- Assay Notes: cell-based or functional assay
For each entry below, report its neutralization IC50 value.
# number only, unit µg/mL dropped from output

Task: Identify the reported neutralization IC50 for the following entry. 2.3.12-1 (antibody, human IgG1, kappa, V domains shown) VH: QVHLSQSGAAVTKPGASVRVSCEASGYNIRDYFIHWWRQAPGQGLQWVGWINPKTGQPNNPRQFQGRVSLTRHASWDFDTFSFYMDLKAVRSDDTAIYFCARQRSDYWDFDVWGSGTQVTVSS VL: DIQMTQSPSSLSARVGDTATITCQANGYLNWYQQRRGKAPKLLIYDGSKLERGVPARFSGRRWGQEYILTINNLQPEDVATYFCQVYEFFGPGTRLDLKR
Result: 1.92

Task: Identify the reported neutralization IC50 for the following entry. 3.1.12-1 (antibody, human IgG1, kappa, V domains shown) VH: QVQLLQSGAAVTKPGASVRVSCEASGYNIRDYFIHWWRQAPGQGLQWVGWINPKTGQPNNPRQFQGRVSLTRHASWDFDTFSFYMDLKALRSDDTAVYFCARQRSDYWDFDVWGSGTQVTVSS VL: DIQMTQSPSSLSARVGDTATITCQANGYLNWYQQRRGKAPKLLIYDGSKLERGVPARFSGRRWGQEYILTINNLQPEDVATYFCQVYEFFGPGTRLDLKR
Result: 2.41

Task: Identify the reported neutralization IC50 for the following entry. 1.1.78-1 (antibody, human IgG1, kappa, V domains shown) VH: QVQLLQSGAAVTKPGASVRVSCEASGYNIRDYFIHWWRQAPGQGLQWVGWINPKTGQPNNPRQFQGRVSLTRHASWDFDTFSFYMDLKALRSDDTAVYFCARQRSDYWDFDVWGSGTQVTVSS VL: DIQMTQSPSSLSASVGDTATITCQANGYLNWYQQRRGKAPKLLIYDGSKLERGVPSRFSGRRWGQEYHLTINNLQPEDIATYFCQVYEFFGPGTRLDLKR
Result: 3.3
